The reported measurements were obtained from patent US20230295068A1.

- Tested on: ND3 neuronal cell line
- procedure-summary: Measurement of nerve growth stimulation effect (neurite bearing assay, neurite length assay, number of cells)
- Format: cell-based
- conditions-used: 100 μM compound; ND3 cells, 6 h; relative cell number, DMSO well = 1
The following compounds are shown together with reported Number of cells values.

compound=CCCC1=C(CCCCCCCCCCCCCCCOC)C(C)(C)CCC1=O result=0.82
compound=COCCCCCCCCCCCCCCC1=C(C)C(=O)CC1(C)C result=0.38
compound="COCCCCCCCCCCCCCCCC1C(C)C(=O)CCC1(C)C (centres unmarked)" result=1.16

// Number of cells value for `COCCCCCCCCCCCCCCCC1=C(C)C(=O)CC1(C)C` : 0.47

// Number of cells value for COCCCCCCCCCCCCCCCC1=C(C)C(O)CCC1(C)C (centres unmarked) : 1.09
